B1: CDC14A (parent)
chain: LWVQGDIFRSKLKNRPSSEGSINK

variants of: B1; test: protein stability index of a GFP-peptide fusion (GPS, HEK-293T) (PSI 1-6); higher = more stable; conditions: c terminus: a fixed tail appended;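 also: lentivirally expressed fusions sorted by FACS into six bins by GFP to DsRed ratio, PSI derived from sequencing read proportions per bin multiplied by bin number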
Recorded Endpoint: protein stability index
Please reply with the value in numeric form only.

Please review the following examples before continuing.
K11C : 2.22
W2K : 3.74
E19R : 2.35
N14K : 2.55
I7G : 2.83

State the recorded protein stability index for this entry: D6K
1.74

State the recorded protein stability index for this entry: N23R
2.4

State the recorded protein stability index for this entry: G5S
2.52

State the recorded protein stability index for this entry: R15L
2.92

State the recorded protein stability index for this entry: K24M
2.08

State the recorded protein stability index for this entry: I22D
3.2
